Measurement Target: UniProt:P35372
Sequence (P35372 whole entry): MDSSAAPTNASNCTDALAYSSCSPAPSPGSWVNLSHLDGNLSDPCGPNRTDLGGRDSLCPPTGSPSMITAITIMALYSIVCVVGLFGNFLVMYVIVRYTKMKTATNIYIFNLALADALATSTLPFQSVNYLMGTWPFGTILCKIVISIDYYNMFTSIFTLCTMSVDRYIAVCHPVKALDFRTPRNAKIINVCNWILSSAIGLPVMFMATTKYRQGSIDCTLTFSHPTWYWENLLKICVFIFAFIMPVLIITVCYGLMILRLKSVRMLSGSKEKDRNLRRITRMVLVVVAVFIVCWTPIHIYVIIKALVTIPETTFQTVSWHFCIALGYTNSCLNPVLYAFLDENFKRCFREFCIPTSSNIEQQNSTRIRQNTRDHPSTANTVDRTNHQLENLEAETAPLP
Test Protocol: Antagonist activity at human mu-type opioid receptor assessed as inhibition of agonist-induced effect at 10 uM by GTPgamma[35S] binding-based assay
Format: functional
Rule: inhibition of 20% or more gives TRUE; anything lower gives FALSE.

- Structure Notation: "CN(CCCNC(=O)c1ccc(C(F)(F)F)cc1)Cc1ccccc1"
  Measurement Target: "UniProt:P35372"
  Label Value: "FALSE"

Determine whether measured inhibition meets or exceeds 20% for CN(CCCNC(=O)c1cccc(Br)c1)Cc1ccccc1
TRUE

Determine whether measured inhibition meets or exceeds 20% for CN(CCCNC(=O)c1ccc(Cl)cc1)Cc1ccccc1
FALSE

Determine whether measured inhibition meets or exceeds 20% for CN(CCCNC(=O)c1ccc([N+](=O)[O-])cc1)Cc1ccccc1
FALSE

Determine whether measured inhibition meets or exceeds 20% for CN(CCNC(=O)c1ccc([N+](=O)[O-])cc1)Cc1ccccc1
FALSE
